- System: brain cancer cell (glioma) U118
- method.summary: Brain cancer (glioma) U118 cell growth
- Type: cell-based
- details: 72 hours of incubation
Can you tell me IC50 for the items I'm about to list?
Express your answer in µM, writing the number without its unit.

Please give the documented IC50 of CCC=CCC=CCC=CCC=CCC=CCCC(C(=O)OCC)N(OCC)OCC (stereo not shown) 443

Please give the documented IC50 of CCCCCC=CCC=CCCCCCCC(O)C(=O)OCC (stereo not shown) 213

Please give the documented IC50 of CCC=CCC=CCC=CCCCCCCC(OC)C(=O)O (stereo not shown) 329

Please give the documented IC50 of CCCCCC=CCC=CCC=CCC=CCCC(O)C(=O)OCC (stereo not shown) 224

Please give the documented IC50 of CCC=CCC=CCC=CCC=CCC=CCC=CCC(O)C(=O)OCC (stereo not shown) 265

Please give the documented IC50 of CCCCCC=CCC=CCC=CCC=CCCC(OP(=O)(OCC)OCC)C(=O)OCC (stereo not shown) 501

Please give the documented IC50 of CCCCCC=CCC=CCC=CCC=CCCC(O)C(=O)O (stereo not shown) [204A1] 197

Please give the documented IC50 of CCC=CCC=CCC=CCCCCCCC(O)C(=O)OP(=O)(OCC)OCC (stereo not shown) 354

Please give the documented IC50 of CCCCCC=CCC=CCC=CCC=CCCC(C)C(=O)[O-].[Na+] (stereo not shown) 247

Please give the documented IC50 of CCC=CCC=CCC=CCC=CCC=CCCC(C)C(=O)OC (stereo not shown) 462

* * *

- Tested on: apolipoprotein AI (apoA-I)
- method.summary: Levels of apoA-I in SHR rats (RT-PCR)
- Assay type: in vivo, rat
- details: 200 mg/kg day p.o., 30 days, before treatment 100%
quantity.measured: Levels of apoA-I (%)
Express your answer in %, writing the number without its unit.

Please give the documented Levels of apoA-I of CCC=CCC=CCC=CCC=CCC=CCCC(C)C(=O)OCC (stereo not shown) [205N1] 293

Please give the documented Levels of apoA-I of CCCCCC=CCC=CCCCCCCC(O)C(=O)[O-].[Na+] (stereo not shown) [182B1] 178

Please give the documented Levels of apoA-I of CCC=CCC=CCC=CCC=CCC=CCCC(O)C(=O)OP(=O)(OCC)OCC (stereo not shown) [205F1] 319

Please give the documented Levels of apoA-I of CCCCCC=CCC=CCCCCCCC(O)C(=O)OP(=O)(OCC)OCC (stereo not shown) [182F1] 192

Please give the documented Levels of apoA-I of CCCCCC=CCC=CCC=CCCCC(OC=O)C(=O)OCC (stereo not shown) [183V2] 282

Please give the documented Levels of apoA-I of CCCCCC=CCC=CCC=CCC=CCCC(O)C(=O)[O-].[Na+] (stereo not shown) [204B1] 144

Please give the documented Levels of apoA-I of CCC=CCC=CCC=CCCCCCCC(O)C(=O)[O-].[Na+] (stereo not shown) [183B1] 151

Please give the documented Levels of apoA-I of CCCCCC=CCC=CCCCCCCC(C)C(=O)[O-].[Na+] (stereo not shown) [182L1] 131

Please give the documented Levels of apoA-I of CCCCCC=CCC=CCCCCCCC(OC=O)C(=O)OCC (stereo not shown) [182V1] 166

Please give the documented Levels of apoA-I of CCCCCC=CCC=CCCCCCCC(C)C(=O)OCC (stereo not shown) [182N1] 159

Please give the documented Levels of apoA-I of CCCCCC=CCC=CCC=CCCCC(CO)C(=O)O (stereo not shown) [183P2] 347

Please give the documented Levels of apoA-I of CCC=CCC=CCC=CCC=CCC=CCC=CCC(O)C(=O)O (stereo not shown) [226A1] 324

Please give the documented Levels of apoA-I of CCCCCC=CCC=CCC=CCCCC(O)C(=O)[O-].[Na+] (stereo not shown) [183B2] 285

Please give the documented Levels of apoA-I of CCCCCC=CCC=CCC=CCC=CCCC(O)C(=O)O (stereo not shown) [204A1] 131

Please give the documented Levels of apoA-I of CCCCCC=CCC=CCC=CCC=CCCC(OC=O)C(=O)OCC (stereo not shown) [204V1] 161

Please give the documented Levels of apoA-I of CCCCCC=CCC=CCC=CCC=CCCC(C)C(=O)[O-].[Na+] (stereo not shown) [204L1] 188

Please give the documented Levels of apoA-I of CCCCCC=CCC=CCC=CCCCC(C)C(=O)[O-].[Na+] (stereo not shown) [183L2] 268

Please give the documented Levels of apoA-I of CCC=CCC=CCC=CCCCCCCC(OC=O)C(=O)OCC (stereo not shown) [183V1] 152

Please give the documented Levels of apoA-I of CCCCCC=CCC=CCC=CCC=CCCC(O)C(=O)OP(=O)(OCC)OCC (stereo not shown) [204F1] 163

Please give the documented Levels of apoA-I of CCC=CCC=CCC=CCC=CCC=CCC=CCC(CO)C(=O)O (stereo not shown) [226P1] 382

Please give the documented Levels of apoA-I of CCC=CCC=CCC=CCC=CCC=CCCC(C)C(=O)[O-].[Na+] (stereo not shown) [205L1] 376

Please give the documented Levels of apoA-I of CCC=CCC=CCC=CCC=CCC=CCCC(CO)C(=O)O (stereo not shown) [205P1] 337

Please give the documented Levels of apoA-I of CCC=CCC=CCC=CCC=CCC=CCCC(OC=O)C(=O)OCC (stereo not shown) [205V1] 315

Please give the documented Levels of apoA-I of CCC=CCC=CCC=CCC=CCC=CCCC(O)C(=O)O (stereo not shown) [205A1] 346

Please give the documented Levels of apoA-I of CCCCCC=CCC=CCC=CCCCC(C)C(=O)OCC (stereo not shown) [183N2] 296

Please give the documented Levels of apoA-I of CCCCCC=CCC=CCCCCCCC(O)C(=O)O (stereo not shown) [182A1, 2-hydroxy-9,12-octadecadienoic acid] 146

Please give the documented Levels of apoA-I of CCC=CCC=CCC=CCCCCCCC(C)C(=O)OCC (stereo not shown) [183N1] 189

Please give the documented Levels of apoA-I of CCC=CCC=CCC=CCCCCCCC(O)C(=O)O (stereo not shown) [183A1, 2-hydroxy-9,12,15-octadecatrienoic acid] 134

* * *

Can you tell me Temperature of lamellar-to-hexagonal transition for the items I'm about to list?
- method.summary: Lamellar-to-hexagonal (HII) transition temperature in DEPE model membranes by Differential Scanning Calorimetry
- Type: physicochemical
- details: DEPE membranes, DEPE:D-PUFA 10:1 (mol:mol)
- Procedure: The transition temperature was determined by Differential Scanning Calorimetry. The proportion DEPE:D-PUFA was 10:1 (mol:mol) in all cases. Lamellar-to-hexagonal transition is an important parameter that reflects relevant signalling properties of cell membranes. […]
Express your answer in °C, writing the number without its unit.

Please give the documented Temperature of lamellar-to-hexagonal transition of CCC=CCC=CCC=CCCCCCCC(Cl)C(=O)OCC (stereo not shown) 51.2

Please give the documented Temperature of lamellar-to-hexagonal transition of CCCCCC=CCC=CCC=CCC=CCCC(O)C(=O)OC (stereo not shown) 48.7

Please give the documented Temperature of lamellar-to-hexagonal transition of CCC=CCC=CCC=CCCCCCCC(OP(=O)(OCC)OCC)C(=O)OCC (stereo not shown) 51.8

Please give the documented Temperature of lamellar-to-hexagonal transition of CC/C=C\C/C=C\C/C=C\C/C=C\C/C=C\C/C=C\CC(O)C(=O)[O-].[Na+] (stereo not shown) 45.1

Please give the documented Temperature of lamellar-to-hexagonal transition of CCCCCC=CCC=CCC=CCC=CCCC(Cl)C(=O)OCC (stereo not shown) 49.7

Please give the documented Temperature of lamellar-to-hexagonal transition of CCCCCC=CCC=CCC=CCC=CCCC(O)C(=O)[O-].[Na+] (stereo not shown) 50.2

Please give the documented Temperature of lamellar-to-hexagonal transition of CCCCCC=CCC=CCC=CCC=CCCC(O)C(=O)OCC (stereo not shown) 48.4

Please give the documented Temperature of lamellar-to-hexagonal transition of CCCCCC=CCC=CCC=CCCCC(O)C(=O)OCC (stereo not shown) 49.3

Please give the documented Temperature of lamellar-to-hexagonal transition of CCC=CCC=CCC=CCC=CCC=CCCC(OC)C(=O)O (stereo not shown) 47.3

Please give the documented Temperature of lamellar-to-hexagonal transition of CCCCCC=CCC=CCCCCCCC(O)C(=O)OC (stereo not shown) 51

Please give the documented Temperature of lamellar-to-hexagonal transition of CCCCCC=CCC=CCCCCCCC(O)C(=O)[O-].[Na+] (stereo not shown) 52.1

Please give the documented Temperature of lamellar-to-hexagonal transition of CCC=CCC=CCC=CCC=CCC=CCC=CCC(O)C(=O)OC (stereo not shown) 43.9

Please give the documented Temperature of lamellar-to-hexagonal transition of CCC=CCC=CCC=CCC=CCC=CCCC(O)C(=O)OCC (stereo not shown) 46.7

Please give the documented Temperature of lamellar-to-hexagonal transition of CCC=CCC=CCC=CCC=CCC=CCCC(O)C(=O)OC (stereo not shown) 47.5

Please give the documented Temperature of lamellar-to-hexagonal transition of CCCCCC=CCC=CCC=CCCCC(O)C(=O)[O-].[Na+] (stereo not shown) 51

Please give the documented Temperature of lamellar-to-hexagonal transition of CCCCCC=CCC=CCC=CCCCC(Cl)C(=O)OCC (stereo not shown) 51.3

Please give the documented Temperature of lamellar-to-hexagonal transition of CCC=CCC=CCC=CCCCCCCC(OC)C(=O)O (stereo not shown) 50.3

Please give the documented Temperature of lamellar-to-hexagonal transition of CCCCCC=CCC=CCCCCCCC(O)C(=O)OCC (stereo not shown) 50.6

Please give the documented Temperature of lamellar-to-hexagonal transition of CCCCCC=CCC=CCC=CCC=CCCC(OP(=O)(OCC)OCC)C(=O)OCC (stereo not shown) 50

Please give the documented Temperature of lamellar-to-hexagonal transition of CCCCCC=CCC=CCCCCCCC(OC)C(=O)O (stereo not shown) 51

Please give the documented Temperature of lamellar-to-hexagonal transition of CCC=CCC=CCC=CCC=CCC=CCC=CCC(OC)C(=O)O (stereo not shown) 44.1

Please give the documented Temperature of lamellar-to-hexagonal transition of CCC=CCC=CCC=CCCCCCCC(O)C(=O)[O-].[Na+] (stereo not shown) 51.9
